Biological target: human A2B receptor (Homo sapiens)
Sequence (P29275 whole entry): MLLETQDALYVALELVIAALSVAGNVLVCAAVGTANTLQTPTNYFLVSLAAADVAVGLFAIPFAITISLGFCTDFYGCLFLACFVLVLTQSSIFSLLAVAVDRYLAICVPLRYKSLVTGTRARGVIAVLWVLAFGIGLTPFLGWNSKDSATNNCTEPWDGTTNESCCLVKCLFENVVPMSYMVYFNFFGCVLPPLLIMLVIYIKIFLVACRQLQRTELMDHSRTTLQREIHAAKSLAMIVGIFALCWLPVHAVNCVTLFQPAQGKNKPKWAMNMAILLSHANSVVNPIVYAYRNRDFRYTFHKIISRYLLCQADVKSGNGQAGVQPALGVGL
Assay: cAMP (HTRF) functional assay, recombinant HEK293 cells expressing human A2B receptor, agonist NECA
Procedure: The functional activities of human A2A, A2B, A1 and A3 receptors were determined by quantification of cAMP, being the second messenger for adenosine receptors. Cells were seeded into 384-well plates, forskolin, test compounds and agonists (CPA for A1- and IB-MECA for A3-receptor) were added. After 30 min incubation, HTRF reagents (cAMP dynamic 2, Cis Bio) were added and the cellular cAMP levels were determined using the ENVISION (Perkin Elmer) plate reader. […]
pIC50: −log10 of the molar value.
This section presents molecules with their documented pIC50 values.

Before answering, review these 3 worked examples.
COc1ncc(N2CCOCC2)c2sc(NC(=O)N3CC[C@@]4(CCCOC4)C3)nc12 = > 7.00
COc1ncc(N2CC3(CCCO3)C2)c2sc(NC(=O)c3cnn(C)c3)nc12 = > 7.00
COc1ncc(-c2ccccc2)c2sc(NC(=O)N3CCC4(CCOCC4)C3)nc12 = > 7.00

Q) Recall and state the measured pIC50 for COc1ncc(N2CCOCC2)c2sc(NC(=O)c3ccc(Cn4ccnc4)cc3)nc12 .
A) > 7.00

Q) Tell me measured pIC50 for COc1ncc(-c2ccccc2)c2sc(NC(=O)c3ccc(N4C(=O)CCC4=O)cc3)nc12 please.
A) > 7.00

Q) Return the recorded pIC50 value; entry: COc1ncc(-c2cnn(C)c2)c2sc(NC(=O)N3CCC4(CCOCC4)C3)nc12
A) > 7.00

Q) For the molecule COc1ncc(-c2ccccc2)c2sc(NC(=O)c3ccc(C(=O)NCCO)cc3)nc12 , give its measured pIC50 value.
A) > 7.00

Q) State, in one line, measured pIC50 of COc1ncc(-c2cc(F)ccc2F)c2sc(NC(=O)N3CCC4(CCOCC4)C3)nc12
A) > 7.00
